- Experiment: Turbidimetric kinetic aqueous solubility (NIVA-CYPI-KS)
- Type: physicochemical
- Study conditions: potassium phosphate buffer, 37 °C, pH 7.4, aqueous buffer, kinetic from dmso stock, potassium phosphate buffer pH 7.4, 2 h, turbidimetry 620 nm, read-out: Solubility Range Lower bound

# Molecule, solubility at 2 h
rows = [
    ("CC[C@H]1OC(=O)[C@H](C)[C@@H](O[C@H]2C[C@@](C)(OC)[C@@H](O)[C@H](C)O2)[C@H](C)[C@@H](O[C@@H]2O[C@H](C)C[C@H](N(C)C)[C@H]2O)[C@](C)(OC)C[C@@H](C)C(=O)[C@H](C)[C@@H](O)[C@]1(C)O", "> 86 µM"),
    ("Clc1ccccc1C(c1ccccc1)(c1ccccc1)n1ccnc1", "2.59 µM"),
    ("CC[C@H]1OC(=O)[C@H](C)[C@@H](O[C@H]2C[C@@](C)(OC)[C@@H](O)[C@H](C)O2)[C@H](C)[C@@H](O[C@@H]2O[C@H](C)C[C@H](N(C)C)[C@H]2O)[C@](C)(O)C[C@@H](C)C(=O)[C@H](C)[C@@H](O)[C@]1(C)O", "> 86 µM"),
    ("CC[C@H]1OC(=O)[C@H](C)[C@@H](O[C@H]2C[C@@](C)(OC)[C@@H](O)[C@H](C)O2)[C@H](C)[C@@H](O[C@@H]2O[C@H](C)C[C@H](N(C)C)[C@H]2O)[C@](C)(O)C[C@@H](C)CN(C)[C@H](C)[C@@H](O)[C@]1(C)O", "> 86 µM"),
    ("CC[C@H]1OC(=O)[C@H](C)[C@@H](O[C@H]2C[C@@](C)(OC)[C@@H](O)[C@H](C)O2)[C@H](C)[C@@H](O[C@@H]2O[C@H](C)C[C@H](N(C)C)[C@H]2O)[C@](C)(O)C[C@@H](C)/C(=N\\OCOCCOC)[C@H](C)[C@@H](O)[C@]1(C)O", "> 86 µM"),
    ("Clc1ccc(COC(Cn2ccnc2)c2ccc(Cl)cc2Cl)c(Cl)c1 (stereo not drawn)", "8.62 µM"),
]
